Provide the reported melting point of each item.

CON=C(C)CC1CC(O)=C(c2c(C)cc(-c3ccccc3)cc2OC)C1=O (stereo not shown) [6-099] ... 175 to 177 °C
CON=C(CC1CC(O)=C(c2c(C)cc(C)cc2C)C1=O)C(F)(F)F (stereo not shown) [1-097] ... 115 to 118 °C

Quick one: give me melting point for each item below, same order please.
1. CON=C(C)CC1CC(O)=C(c2c(C)cc(C)cc2C)C1=O (stereo not shown) [1-002]
2. CON=C(C)CC1CC(OC)=C(c2c(C)cc(O)cc2C)C1=O (stereo not shown) [6-069]
3. CCON=C(C)CC1CC(O)=C(c2c(C)cc(C)cc2C)C1=O (stereo not shown) [1-003]

Found:
1. 170 to 173 °C
2. 192 to 195 °C
3. 135 to 140 °C
